Where these numbers come from: ChEMBL document CHEMBL3351268

Target: 3',5'-cyclic-AMP phosphodiesterase 4D (Homo sapiens, UniProt Q08499)
Sequence (Q08499 whole entry): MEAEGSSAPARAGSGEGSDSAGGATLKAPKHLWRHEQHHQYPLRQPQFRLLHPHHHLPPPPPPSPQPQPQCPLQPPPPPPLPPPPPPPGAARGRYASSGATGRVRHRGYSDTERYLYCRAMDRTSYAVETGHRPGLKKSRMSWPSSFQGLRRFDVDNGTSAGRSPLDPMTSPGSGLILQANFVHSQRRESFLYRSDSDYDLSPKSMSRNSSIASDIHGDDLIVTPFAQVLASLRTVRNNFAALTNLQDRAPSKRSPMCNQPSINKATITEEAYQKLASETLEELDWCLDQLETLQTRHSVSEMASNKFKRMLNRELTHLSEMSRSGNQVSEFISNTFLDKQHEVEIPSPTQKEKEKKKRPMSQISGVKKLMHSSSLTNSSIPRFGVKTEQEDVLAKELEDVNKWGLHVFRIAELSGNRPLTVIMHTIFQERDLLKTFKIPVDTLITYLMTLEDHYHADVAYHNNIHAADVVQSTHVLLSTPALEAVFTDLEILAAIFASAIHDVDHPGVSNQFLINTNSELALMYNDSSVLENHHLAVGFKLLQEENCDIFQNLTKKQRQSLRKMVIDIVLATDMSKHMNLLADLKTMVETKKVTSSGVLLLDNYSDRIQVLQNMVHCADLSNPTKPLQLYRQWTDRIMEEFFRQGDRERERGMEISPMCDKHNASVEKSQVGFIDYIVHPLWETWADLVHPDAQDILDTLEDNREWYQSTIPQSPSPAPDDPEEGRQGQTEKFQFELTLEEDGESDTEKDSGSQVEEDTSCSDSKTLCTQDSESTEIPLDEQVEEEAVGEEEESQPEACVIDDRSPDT
Experiment: Inhibition of PDE4D1 (unknown origin) at 10 uM
measuredMetric: inhibition

compound: COc1ccc(/C=N/N2CC(C)OC(C)C2)cc1OC1CCCC1 (stereo not given)
measuredMetric: inhibition
testValue: 68%
//
compound: COc1ccc(/C=N/N2CCOCC2)cc1OC1CCCC1
measuredMetric: inhibition
testValue: 75%
//
compound: COc1ccc(/C=N/OCC(O)CNN2CC(C)OC(C)C2)cc1OC1CCCC1 (stereo not given)
measuredMetric: inhibition
testValue: 65%
//
compound: COc1ccc(C(=O)NN2CCOCC2)cc1OC1CCCC1
measuredMetric: inhibition
testValue: 49%
//
compound: COc1ccc(C(=O)N2CC(C)OC(C)C2)cc1OC1CCCC1 (stereo not given)
measuredMetric: inhibition
testValue: 18%
